# SYSTEM: C3b (UniProt P01024)
# Sequence (P01024 23-667 limits assumed, chain 1 of 2): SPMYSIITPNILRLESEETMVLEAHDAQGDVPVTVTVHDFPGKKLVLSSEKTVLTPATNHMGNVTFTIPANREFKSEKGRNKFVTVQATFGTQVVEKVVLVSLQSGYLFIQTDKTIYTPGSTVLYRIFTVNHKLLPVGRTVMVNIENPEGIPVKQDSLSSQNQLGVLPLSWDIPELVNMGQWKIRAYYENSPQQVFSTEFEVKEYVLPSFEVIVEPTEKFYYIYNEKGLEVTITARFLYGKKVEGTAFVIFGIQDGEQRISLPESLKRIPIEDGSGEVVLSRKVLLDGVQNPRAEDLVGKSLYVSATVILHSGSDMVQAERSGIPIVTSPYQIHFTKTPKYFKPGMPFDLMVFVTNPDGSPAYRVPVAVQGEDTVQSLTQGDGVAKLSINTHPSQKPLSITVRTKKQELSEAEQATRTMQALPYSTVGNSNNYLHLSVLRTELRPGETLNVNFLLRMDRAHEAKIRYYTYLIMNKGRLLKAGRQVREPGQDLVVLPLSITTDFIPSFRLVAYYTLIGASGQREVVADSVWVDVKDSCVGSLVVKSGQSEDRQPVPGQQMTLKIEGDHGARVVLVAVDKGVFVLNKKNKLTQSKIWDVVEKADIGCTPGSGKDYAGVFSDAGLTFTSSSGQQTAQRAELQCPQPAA
# Sequence (P01024 749-1663 limits assumed, chain 2 of 2): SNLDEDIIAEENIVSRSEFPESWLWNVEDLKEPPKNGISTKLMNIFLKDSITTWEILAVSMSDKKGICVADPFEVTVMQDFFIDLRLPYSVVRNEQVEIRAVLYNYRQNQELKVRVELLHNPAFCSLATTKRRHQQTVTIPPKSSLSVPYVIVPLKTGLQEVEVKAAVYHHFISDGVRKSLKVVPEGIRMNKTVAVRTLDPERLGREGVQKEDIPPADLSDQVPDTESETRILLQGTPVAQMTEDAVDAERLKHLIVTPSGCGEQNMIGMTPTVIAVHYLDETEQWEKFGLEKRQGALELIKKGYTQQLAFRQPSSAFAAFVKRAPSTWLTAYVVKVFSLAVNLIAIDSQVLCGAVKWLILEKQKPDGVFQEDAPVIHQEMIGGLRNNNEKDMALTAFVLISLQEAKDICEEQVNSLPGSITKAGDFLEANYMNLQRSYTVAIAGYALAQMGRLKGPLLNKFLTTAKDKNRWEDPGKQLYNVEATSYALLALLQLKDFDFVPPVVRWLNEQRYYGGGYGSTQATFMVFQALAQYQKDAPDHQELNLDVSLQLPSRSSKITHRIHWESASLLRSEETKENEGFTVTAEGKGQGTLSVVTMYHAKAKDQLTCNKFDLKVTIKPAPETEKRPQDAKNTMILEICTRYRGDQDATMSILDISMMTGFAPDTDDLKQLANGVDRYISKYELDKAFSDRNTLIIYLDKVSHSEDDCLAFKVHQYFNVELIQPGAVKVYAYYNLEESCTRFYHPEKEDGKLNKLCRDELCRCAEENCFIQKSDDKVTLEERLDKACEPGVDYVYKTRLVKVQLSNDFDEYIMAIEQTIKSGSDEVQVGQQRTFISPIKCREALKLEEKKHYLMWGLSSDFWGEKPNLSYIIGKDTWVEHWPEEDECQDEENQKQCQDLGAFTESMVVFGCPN
# PROTOCOL_DETAILS: cell-based or functional assay
QUANTITY_KIND: Relative C3b CFA
Answer with the value's number alone.

See these solved cases before continuing.
Entry under review: D2D3M3M4 (T200Y) (protein) CEVPTRLNSASLKQPYITQNYFPVGTVVEYECRPGYRREPSLSPKLTCLQNLKWSTAVEFCKKKSCPNPGEIRNGQIDVPGGILFGATISFSCNTGYKLFGSYSSFCLISGSSVQWSDPLPECREIYCTPPPKIKNGKHTFSEVEVFEYLDAVTYSCDPAPGPDPFSLIGESTIYCGDNSVWSRAAPECKVVKCRFPVVENGKQISGFGKKFYYKATVMFECDKGFYLDGSDTIVCDSNSTWDPPVPKCLKVL . Reported Relative C3b CFA?
0.8

Moving on to D2D3M3M4 (T192E) (protein) CEVPTRLNSASLKQPYITQNYFPVGTVVEYECRPGYRREPSLSPKLTCLQNLKWSTAVEFCKKKSCPNPGEIRNGQIDVPGGILFGATISFSCNEGYKLFGSTSSFCLISGSSVQWSDPLPECREIYCTPPPKIKNGKHTFSEVEVFEYLDAVTYSCDPAPGPDPFSLIGESTIYCGDNSVWSRAAPECKVVKCRFPVVENGKQISGFGKKFYYKATVMFECDKGFYLDGSDTIVCDSNSTWDPPVPKCLKVL
1.1

Moving on to D2D3M3M4 (Multi-5) or DCP (decay-cofactor protein) (protein) CEVPTRLNSASLKQPYITQNYFPVGTVVEYECRPGYRREPSLSPKLTCLQNLKWSTAVEFCKKKSCPNPGEIRNGQIDVPGGILFGATISFSCNTGYKLIGSTSSFCLISGSSVQWSDKLPICEKVLCTPPPKIKNGKHTFSEVEVFEYLDAVTYSCDPAPGPDPFSLIGESTIYCGDNSVWSRAAPECKVVKCRFPVVENGKQISGFGKKFYYKATVMFECDKGFYLDGSDTIVCDSNSTWDPPVPKCLKVL
1.5

Moving on to D2D3M3M4 (S199K) (protein) CEVPTRLNSASLKQPYITQNYFPVGTVVEYECRPGYRREPSLSPKLTCLQNLKWSTAVEFCKKKSCPNPGEIRNGQIDVPGGILFGATISFSCNTGYKLFGKTSSFCLISGSSVQWSDPLPECREIYCTPPPKIKNGKHTFSEVEVFEYLDAVTYSCDPAPGPDPFSLIGESTIYCGDNSVWSRAAPECKVVKCRFPVVENGKQISGFGKKFYYKATVMFECDKGFYLDGSDTIVCDSNSTWDPPVPKCLKVL
4.4

// switching to the query binder
Entry under review: D2D3M3M4 (L205K) (protein) CEVPTRLNSASLKQPYITQNYFPVGTVVEYECRPGYRREPSLSPKLTCLQNLKWSTAVEFCKKKSCPNPGEIRNGQIDVPGGILFGATISFSCNTGYKLFGSTSSFCKISGSSVQWSDPLPECREIYCTPPPKIKNGKHTFSEVEVFEYLDAVTYSCDPAPGPDPFSLIGESTIYCGDNSVWSRAAPECKVVKCRFPVVENGKQISGFGKKFYYKATVMFECDKGFYLDGSDTIVCDSNSTWDPPVPKCLKVL . Reported Relative C3b CFA?
0.8
